Biological target: human GRP receptor (human, UniProt P30550 1-384)
Sequence (P30550 whole entry): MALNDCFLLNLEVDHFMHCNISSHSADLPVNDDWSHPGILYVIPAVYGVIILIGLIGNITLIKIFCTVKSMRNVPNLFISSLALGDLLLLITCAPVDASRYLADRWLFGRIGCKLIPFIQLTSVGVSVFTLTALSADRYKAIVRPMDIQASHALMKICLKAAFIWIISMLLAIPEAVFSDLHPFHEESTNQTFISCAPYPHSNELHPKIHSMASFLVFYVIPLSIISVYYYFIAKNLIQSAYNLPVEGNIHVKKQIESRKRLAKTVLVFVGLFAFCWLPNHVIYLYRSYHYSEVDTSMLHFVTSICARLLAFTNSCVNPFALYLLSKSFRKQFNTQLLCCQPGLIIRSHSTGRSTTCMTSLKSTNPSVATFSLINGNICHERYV
Experiment: cell-based or functional assay
Starred links: 1 amine or outer side, 2 acyl side, 3 side chain; linkers in the order of their positions; H or OH if unused. Non-standard residues stand in square brackets, D forms with d. *: point of attachment. C18 diacid = O=C(O)CCCCCCCCCCCCCCCCC(=O)*; γGlu = O=C(O)[C@H](CCC(=O)[*:2])N[*:1]; Nle = CCCC[C@H](N)C(=O)O; AEEA = NCCOCCOCC(=O)O
measurement-kind: hIP1 GRPR EC50 (nM)
Your answer should be a plain number; it is taken to be in nM.

hIP1 GRPR EC50 reported for this binder {C18 diacid}-[γGlu][AEEA][AEEA][dF]NHWAV[dA]HL[Nle]-NH2 (SMILES CCCC[C@H](NC(=O)[C@H](CC(C)C)NC(=O)[C@H](Cc1c[nH]cn1)NC(=O)[C@@H](C)NC(=O)[C@@H](NC(=O)[C@H](C)NC(=O)[C@H](Cc1c[nH]c2ccccc12)NC(=O)[C@H](Cc1c[nH]cn1)NC(=O)[C@H](CC(N)=O)NC(=O)[C@@H](Cc1ccccc1)NC(=O)COCCOCCNC(=O)COCCOCCNC(=O)CC[C@H](NC(=O)CCCCCCCCCCCCCCCCC(=O)O)C(=O)O)C(C)C)C(N)=O) [Peptide 143] : 10.7
